target: aldose reductase (Bos taurus); construct: partially purified aldose reductase enzyme obtained from calf lens; from tissue; host or cells: calf lens; experiment: Inhibition of aldose reductase enzyme activity (partially purified enzyme from calf lens); type: biochemical; conditions: 10^-4 M; Example 6 test; calf lens enzyme; read-out: % Inhibition at 10^-4 M
endpoint.name: inhibition at 100 µM (%)
Give bare numbers, in %.

In [3]: df
Out[3]:
                                   molecule         endpoint_name  unit_label  result
0  O=C1NC(=O)C2(CCc3c(Cl)sc(Cl)c32)N1 (centres unmarked) [Example 1]  inhibition at 100 µM           %      83

Please supply inhibition at 100 µM for each of the following items, keeping them in order.
1. O=C1NC(=O)C2(CCc3sc(Cl)cc32)N1 (centres unmarked) [Example 4]
2. O=C1NC(=O)C2(CCc3c2csc3Cl)N1 (centres unmarked) [Example 2]
3. O=C1NC(=O)C2(CCc3cscc32)N1 (centres unmarked) [Example 3]
4. O=C1NC(=O)C2(CCCc3sccc32)N1 (centres unmarked) [Example 5]

Key:
1. 80
2. 95
3. 46
4. 52

Data provenance is patent US4127665A.
